Test system: Hepatitis B virus
assay.protocol: Antiviral activity against HBV infected in human HepAD38 cells assessed as reduction in viral replication by RT-PCR method
Format: functional, organism-based
property: log10 EC90 (log10 of the value in µM)
# values: log10(EC90), units µM

# annotated cases, reported log10 EC90 shown
                                   compound    property  observed
0  CC(NS(=O)(=O)c1ccc(F)c(C(=O)Nc2ccc(F)c(F)c2)c1)c1ccccc1 (stereo not given)  log10 EC90      0.97
1       Nc1ccn([C@@H]2CS[C@H](CO)O2)c(=O)n1  log10 EC90     -0.52
2  O=C(Nc1ccc(F)c(F)c1)c1cc(S(=O)(=O)N2CC(F)(F)C2)ccc1F  log10 EC90      0.80
3  O=C(Nc1ccc(F)c(F)c1)c1cc(NS(=O)(=O)C2CCCC2)ccc1F  log10 EC90      0.98
4  O=C(Nc1ccc(F)c(F)c1)c1cc(S(=O)(=O)N2CCC(F)(F)CC2)ccc1F  log10 EC90      0.97

Batch request: log10 EC90 per item, same order as input.
1. O=C(Nc1ccc(F)c(F)c1)c1cc(S(=O)(=O)NC2CCCC2)ccc1F
2. CC(C)(NS(=O)(=O)c1ccc(F)c(C(=O)Nc2ccc(F)c(F)c2)c1)c1ccccc1

1. 0.89
2. 0.98

Provide each entry's log10 EC90 from the list below.
1. O=C(Nc1ccc(F)c(F)c1)c1cc(S(=O)(=O)N2CCC3CCCCC32)ccc1F (stereo not given)
2. O=C(Nc1ccc(F)c(F)c1)c1cc(S(=O)(=O)NC2CC2)ccc1F

1.00
0.95
